Origin of values: ChEMBL document CHEMBL1157215

assay: Growth inhibition of human SF269 cells; type: functional
readoutType: log10 GI50 (log10 of the value in µg/mL)
In plain terms, each number is the log10 of measured GI50 in µg/mL.

As a guide, the following entries are already answered.
[[record]]
molecule = "O=C1N[C@@H]2C(=C[C@H](O)[C@@H](O)[C@H]2O)c2cc3c(c(O)c21)OCO3"
measuredresult = -1.68

[[record]]
molecule = "O=C1N[C@@H]2C(=C[C@H](O)[C@@H](O)[C@H]2O)c2cc3c(cc21)OCO3"
measuredresult = -1.33

[[record]]
molecule = "O=C1N[C@H]2[C@H](O)[C@H](O)[C@@H](O)C[C@@H]2c2cc3c(cc21)OCO3"
measuredresult = -1.52


// query Fill in: log10 GI50 of `Cl.O[C@@H]1[C@H](O)[C@@H](O)C=C2c3cc4c(cc3CN[C@H]21)OCO4` is ___
// result 0.46

// query Fill in: log10 GI50 of CC(=O)O[C@@H]1[C@H](OC(C)=O)[C@@H](OC(C)=O)C=C2c3cc4c(cc3C(=O)N[C@H]21)OCO4 [LYCORICIDINE TRIACETATE] is ___
// result -0.82

====

# maps each entry to its GI50
system: DU-145; test: Growth inhibition of human DU145 cells; format: functional
Write the value in µg/mL as a bare number.

As a guide, the following entries are already answered.
[[record]]
molecule = "Cl.O[C@@H]1[C@H](O)[C@@H](O)C=C2c3cc4c(cc3CN[C@H]21)OCO4"
testedsystem = "DU-145"
measuredresult = 3.2

[[record]]
molecule = "O=C1N[C@H]2[C@H](O)[C@H](O)[C@@H](O)[C@H](O)[C@@H]2c2cc3c(c(O)c21)OCO3"
testedsystem = "DU-145"
measuredresult = 0.016

[[record]]
molecule = "CC(=O)O[C@H]1C=C2c3cc4c(cc3C(=O)N[C@H]2[C@H](O)[C@@H]1O)OCO4"
testedsystem = "DU-145"
measuredresult = 0.26


// query Fill in: GI50 of `Cl.O[C@@H]1[C@H](O)[C@@H](O)C[C@@H]2c3cc4c(cc3CN[C@@H]12)OCO4` is ___
// result 0.71

// query Fill in: GI50 of `O=C1N[C@H]2[C@H](O)[C@H](O)[C@@H](O)C[C@@H]2c2cc3c(cc21)OCO3` is ___
// result 0.025

// query Fill in: GI50 of `CC(=O)O[C@H]1[C@@H]2NC(=O)c3cc4c(cc3[C@H]2C[C@H](OC(C)=O)[C@H]1OC(C)=O)OCO4` is ___
// result 0.46

// query Fill in: GI50 of `O=C1N[C@@H]2C(=C[C@H](O)[C@@H](O)[C@H]2O)c2cc3c(c(O)c21)OCO3` is ___
// result 0.011

====

tested on: BXPC-3; assay: Growth inhibition of human BXPC3 cells; assay type: functional
# maps each entry to its GI
Write the value in µg/mL as a bare number.

[[record]]
compound = "CC(=O)O[C@@H]1[C@H](OC(C)=O)[C@@H](OC(C)=O)C=C2c3cc4c(cc3C(=O)N[C@H]21)OCO4 [LYCORICIDINE TRIACETATE]"
readouttype = "GI"
measuredresult = 0.2

[[record]]
compound = "Cl.O[C@@H]1[C@H](O)[C@@H](O)C=C2c3cc4c(cc3CN[C@H]21)OCO4"
readouttype = "GI"
measuredresult = 4.4

[[record]]
compound = "CC(=O)O[C@H]1C=C2c3cc4c(cc3C(=O)N[C@H]2[C@H](O)[C@@H]1O)OCO4"
readouttype = "GI"
measuredresult = 0.26

[[record]]
compound = "O=C1N[C@@H]2C(=C[C@H](O)[C@@H](O)[C@H]2O)c2cc3c(cc21)OCO3"
readouttype = "GI"
measuredresult = 0.12

[[record]]
compound = "CC(=O)O[C@H]1[C@@H]2NC(=O)c3cc4c(cc3[C@H]2C[C@H](OC(C)=O)[C@H]1OC(C)=O)OCO4"
readouttype = "GI"
measuredresult = 0.69

[[record]]
compound = "O=C1N[C@H]2[C@H](O)[C@H](O)[C@@H](O)[C@H](O)[C@@H]2c2cc3c(c(O)c21)OCO3 [PANCRATISTATIN]"
readouttype = "GI"
measuredresult = 0.028


// query Fill in: GI of `O=C1N[C@H]2[C@H](O)[C@H](O)[C@@H](O)C[C@@H]2c2cc3c(cc21)OCO3` is ___
// result 0.036

// query Fill in: GI of O=C1N[C@@H]2C(=C[C@H](O)[C@@H](O)[C@H]2O)c2cc3c(c(O)c21)OCO3 [NARCICLASINE] is ___
// result 0.026

// query Fill in: GI of `Cl.O[C@@H]1[C@H](O)[C@@H](O)C[C@@H]2c3cc4c(cc3CN[C@@H]12)OCO4` is ___
// result 1.4
